The measured values listed here are drawn from PubChem BioAssay AID492948.

Method Notes: qHTS Assay for Agonists of the Relaxin Receptor RXFP1: V1B Hit Validation;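 also: counter-screen in HEK293 cells expressing V1B rather than RXFP1 for selectivity; nearly all actives have a fitted effect of over 65% in size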;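 as to activation: cAMP accumulation with PDE4 inhibitor Ro 20-1724 present during compound exposure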
Experimental Context: HEK293 V1B cells, cAMP TR-FRET, 30 min; series mostly up to 115 µM
Records with an inconclusive call do not appear. Calls of active or inactive are those of the source. Calls follow the shape of the dose curve; as a rule, active = well fitted activation curve with a large enough effect; inconclusive = small, poorly fitted or top-dose-only effect; inactive = no such curve, though single readings can be large or run the other way.
Lab note: assign the record to one of active, inactive

Reference set (3 entries):
{"Molecule": "Cc1ccc(C(=O)Nc2ccccc2C(N)=O)o1", "Class Assignment": "inactive"}
{"Molecule": "O=C(NC1CCCCCC1)c1cc2c(=O)n3ccccc3nc2s1", "Class Assignment": "active"}
{"Molecule": "CCc1nnc(NC(=O)CSc2nc(C)nc3c2c(=O)n(C)c(=O)n3C)s1", "Class Assignment": "active"}

input: Identify the outcome logged in this assay for the molecule shown: CC1CCN(S(=O)(=O)c2ccc3nc(N4CCN(c5ccccc5)CC4)ccc3c2)CC1
output: active

input: Identify the outcome logged in this assay for the molecule shown: CCn1c(SCC(=O)Nc2ccc(NC(C)=O)cc2)nc2c1c(=O)n(C)c(=O)n2C
output: active

input: Identify the outcome logged in this assay for the molecule shown: CN(C)S(=O)(=O)c1cccc(COc2ncnc3c(Cl)cc(Cl)cc23)c1
output: active

---

Method Notes: qHTS Assay for Agonists of the Relaxin Receptor RXFP1: V1B Hit Validation;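 also: counter-screen in HEK293 cells expressing V1B rather than RXFP1 for selectivity; nearly all actives have a fitted effect of over 65% in size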;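 as to activation: cAMP accumulation with PDE4 inhibitor Ro 20-1724 present during compound exposure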
Experimental Context: HEK293 V1B cells, cAMP TR-FRET, 30 min; series mostly up to 115 µM
Records with an inconclusive call do not appear. The source made the active and inactive calls. Calls follow the shape of the dose curve; as a rule, active = well fitted activation curve with a large enough effect; inconclusive = small, poorly fitted or top-dose-only effect; inactive = no such curve, though single readings can be large or run the other way.
Lab note: assign the record to one of active, inactive

Reference set (2 entries):
{"Molecule": "CC(C)C(=O)Nc1ccc(Nc2ccccc2)cc1", "Class Assignment": "inactive"}
{"Molecule": "O=C(O)CSc1ccnc2cc(Cl)ccc12", "Class Assignment": "active"}

We next turn to a different molecule, shown below.
input: Identify the outcome logged in this assay for the molecule shown: Cc1cc(C)c(NC(=O)CS(=O)CC(=O)Nc2ccc(F)cc2F)c(C)c1 (stereo not drawn)
output: inactive

---

Method Notes: qHTS Assay for Agonists of the Relaxin Receptor RXFP1: V1B Hit Validation;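 also: counter-screen in HEK293 cells expressing V1B rather than RXFP1 for selectivity; nearly all actives have a fitted effect of over 65% in size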;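 as to activation: cAMP accumulation with PDE4 inhibitor Ro 20-1724 present during compound exposure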
Experimental Context: HEK293 V1B cells, cAMP TR-FRET, 30 min; series mostly up to 115 µM
Results filed as inconclusive are left out. Active and inactive are the calls of the source. Calls follow the shape of the dose curve; as a rule, active = well fitted activation curve with a large enough effect; inconclusive = small, poorly fitted or top-dose-only effect; inactive = no such curve, though single readings can be large or run the other way.
Lab note: assign the record to one of active, inactive

Reference set (3 entries):
{"Compound": "CCC1(C)Cc2c(sc3c2c2ncnn2c2nnc(SCC(=O)NCc4ccco4)n32)CO1 (stereo not given)", "Class Assignment": "active"}
{"Compound": "O=C(Nc1ccccc1C(=O)N1CCN(c2ccccc2)CC1)c1ccco1", "Class Assignment": "inactive"}
{"Compound": "Cc1cc(C(=O)OCC(=O)c2ccc(Br)s2)no1", "Class Assignment": "active"}

input: Identify the outcome logged in this assay for the compound shown: COC(=O)Cn1cnc2c(C#N)c3n(c2c1=O)CCCCC3
output: active

input: Identify the outcome logged in this assay for the compound shown: COC(=O)c1cc(CN2C(=O)c3ccccc3C2=O)c(O)c([N+](=O)[O-])c1
output: active

input: Identify the outcome logged in this assay for the compound shown: O=C(O)c1ccc(N2C(=O)c3cccc4c(C(=O)O)ccc(c34)C2=O)cc1
output: active

input: Identify the outcome logged in this assay for the compound shown: Cc1ccccc1NC(=O)CNc1ccccc1C(=O)NCc1ccco1
output: inactive

input: Identify the outcome logged in this assay for the compound shown: CCN(CC)S(=O)(=O)c1cccc(N=Nc2c(O)c3ccccc3oc2=O)c1
output: active

input: Identify the outcome logged in this assay for the compound shown: COc1ccc(CC(=O)N/N=C/c2cccnc2)cc1OC
output: inactive

input: Identify the outcome logged in this assay for the compound shown: CCOc1ccc(NC(=O)CSc2ccc3nnc(-c4cccnc4)n3n2)cc1
output: active

input: Identify the outcome logged in this assay for the compound shown: CC[N+](CC)(CCCCS(=O)(=O)[O-])CCNP1(=O)C=C(c2ccccc2)OC(c2ccccc2)=C1
output: active

input: Identify the outcome logged in this assay for the compound shown: CC(=O)c1sc(NC(=O)C(C)C)nc1C
output: active
